- Test system: HMEC
- test: Cytotoxicity against HMECs
- Type: toxicity, cell-based
- recorded.conditions: human, hmec
Threshold check on CC50: strictly below 20 µM is true; on or above 20 µM is false.

Request: Input CN1CCC(Cc2cccc(CNC3(c4ccc(F)cc4Cl)CCCC3)c2)CC1 ; condition: CC50 strictly below 20 µM. Does it hold?
Response: false

Request: Input CN1CC2(CC(Cc3cccc(CNC4(c5ccc(F)c(F)c5)CCCC4)c3)C2)C1 ; condition: CC50 strictly below 20 µM. Does it hold?
Response: true

Request: Input CN1CCC(Cc2cc(CNC3(c4ccc(F)cc4)CCCC3)ccc2Cl)CC1 ; condition: CC50 strictly below 20 µM. Does it hold?
Response: true

Request: Input Fc1ccc(C2(NCc3cc(CC4CCNCC4)ccc3F)CCCC2)cc1 ; condition: CC50 strictly below 20 µM. Does it hold?
Response: true

Request: Input CN1CCC(Cc2cccc(CNC3(c4ccc(F)c(Cl)c4)CCCC3)c2)CC1 ; condition: CC50 strictly below 20 µM. Does it hold?
Response: false

----------
- test: Metabolic stability in rat liver microsomes assessed as half life preincubated for 15 mins followed by NADPH addition and measured after 1 to 2 hrs by LC-MS/MS analysis
- Format: ADME, Microsome
- recorded.conditions: liver microsomes, time 75-135 min
Assignment: determine reported half-life for the given compounds.

Record summary for Fc1ccc(C2(NCc3ccc(F)c(CC4CCNCC4)c3)CCCC2)cc1 : reported half-life = > 1 h

Record summary for Fc1ccc(C2(NCc3cc(CC4CCNCC4)ccc3F)CCCC2)cc1 : reported half-life = > 1 h

Record summary for CN1CC2(CC(Cc3cccc(CNC4(c5ccc(F)cc5)CCCC4)c3)C2)C1 : reported half-life = > 1 h

----------
- test: Aqueous kinetic solubility of the compound in PBS at pH 7.4 at 250 uM incubated for 24 hrs by UPLC/MS analysis
- Format: physicochemical
- recorded.conditions: read-out: Kinetic_solubility
measured.quantity: solubility kinetic at 24 h, 250 µM

Record summary for COc1cc(F)ccc1C1(NCc2cccc(CC3CCN(C)CC3)c2)CCCC1 : reported solubility kinetic at 24 h, 250 µM = 247 µM

Record summary for CN1CCC(Cc2cccc(CNC3(c4ccc(F)cc4)CCCC3)c2)CC1(C)C (racemic) : reported solubility kinetic at 24 h, 250 µM = 239 µM

Record summary for CN1CCC(Cc2cc(CNC3(c4ccc(F)c(F)c4)CCCC3)ccc2F)CC1 : reported solubility kinetic at 24 h, 250 µM = 231 µM

Record summary for CN1CCC(Cc2cccc(CNC3(c4ccc(F)c(O)c4)CCCC3)c2)CC1 : reported solubility kinetic at 24 h, 250 µM = > 250 µM

Record summary for CN1CCC(Cc2cccc(CNC3(c4ccc(F)cc4O)CCCC3)c2)CC1 : reported solubility kinetic at 24 h, 250 µM = 27 µM

Record summary for CN1CCC(Cc2cc(CNC3(c4ccc(F)cc4)CCCC3)ccc2F)CC1 : reported solubility kinetic at 24 h, 250 µM = > 250 µM

Record summary for COc1cc(C2(NCc3cccc(CC4CCN(C)CC4)c3)CCCC2)ccc1F : reported solubility kinetic at 24 h, 250 µM = 219 µM

Record summary for CN1CCC(Cc2cccc(CNC3(c4ccc(F)cc4F)CCCC3)c2)CC1 : reported solubility kinetic at 24 h, 250 µM = 209 µM

Record summary for CN1CCC(Cc2cccc(CNC3(c4ccc(F)cc4)CCCC3)c2)C(F)(F)C1 (racemic) : reported solubility kinetic at 24 h, 250 µM = 41 µM

Record summary for COc1cc(F)ccc1C1(NCc2ccc(F)c(CC3CCN(C)CC3)c2)CCCC1 : reported solubility kinetic at 24 h, 250 µM = > 250 µM

Record summary for CN1CCC(Cc2cccc(CNC3(c4ccc(F)cc4Cl)CCCC3)c2)CC1 : reported solubility kinetic at 24 h, 250 µM = 220 µM

Record summary for CN1CCC(Cc2cc(CNC3(c4ccc(F)cc4)CCCC3)c(F)cc2F)CC1 : reported solubility kinetic at 24 h, 250 µM = 228 µM

Record summary for CN1CCC(Cc2ccc(F)c(CNC3(c4ccc(F)cc4)CCCC3)c2)CC1 : reported solubility kinetic at 24 h, 250 µM = 246 µM

Record summary for CN1CC(Cc2cccc(CNC3(c4ccc(F)cc4)CCCC3)c2)C1 : reported solubility kinetic at 24 h, 250 µM = > 250 µM

Record summary for CN1CCC(Cc2ccc(O)c(CNC3(c4ccc(F)cc4)CCCC3)c2)CC1 : reported solubility kinetic at 24 h, 250 µM = 246 µM

Record summary for CN1CCC(Cc2cc(CNC3(c4ccc(F)cc4)CCCC3)ccc2O)CC1 : reported solubility kinetic at 24 h, 250 µM = > 250 µM

Record summary for CN1CCC(Cc2cccc(CNC3(c4ccc(F)cc4)CCCC3)c2)CC1 : reported solubility kinetic at 24 h, 250 µM = 235 µM

Record summary for CN1CCC(Cc2cc(CNC3(c4ccc(F)cc4)CCCC3)ccc2Cl)CC1 : reported solubility kinetic at 24 h, 250 µM = 216 µM

Record summary for CN1CCC(Cc2cccc(CNC3(c4ccc(F)c(Cl)c4)CCCC3)c2)CC1 : reported solubility kinetic at 24 h, 250 µM = 249 µM

Record summary for Fc1ccc(C2(NCc3ccc(F)c(CC4CCNCC4)c3)CCCC2)cc1 : reported solubility kinetic at 24 h, 250 µM = > 250 µM

Record summary for CN1CCC(Cc2cccc(CNC3(c4ccc(F)c(F)c4)CCCC3)c2)CC1 : reported solubility kinetic at 24 h, 250 µM = 245 µM

Record summary for Fc1ccc(C2(NCc3cc(CC4CCNCC4)ccc3F)CCCC2)cc1 : reported solubility kinetic at 24 h, 250 µM = 245 µM

Record summary for Fc1ccc(C2(NCc3cccc(CC4CCNCC4)c3)CCCC2)cc1 : reported solubility kinetic at 24 h, 250 µM = 248 µM

Record summary for CN1CC2(CC(Cc3cccc(CNC4(c5ccc(F)cc5)CCCC4)c3)C2)C1 : reported solubility kinetic at 24 h, 250 µM = 232 µM

Record summary for CN1CC2(CC(Cc3cccc(CNC4(c5ccc(F)c(F)c5)CCCC4)c3)C2)C1 : reported solubility kinetic at 24 h, 250 µM = 226 µM
